System: PC-3
Protocol summary: NCI tumour cell line growth inhibition, 48 h
Activity calls are given as the source filed them. Cut-off read from the data, not from the text of the source: active = GI50 up to about 1.1 µM and inactive = higher.
Below, each of the molecules is paired with its reported GI50 value.

molecule="S=C1c2cc(Cl)ccc2N=C(NC2CCCC2)C2CSCN12 (stereo not given)" endpoint_value="> 55.6 µM (inactive)"
molecule=N=C(CC(=O)Nc1ccccn1)c1ccccc1 endpoint_value="> 100 µM (inactive)"
molecule=CC1(C)CC(=O)c2c(nc3c(ccc4ccccc43)c2-c2ccc(NC(=O)CCCCC(=O)Nc3ccc(-c4c5c(nc6c4ccc4ccccc46)CC(C)(C)CC5=O)cc3)cc2)C1 endpoint_value="27.4 µM (inactive)"

Input line: For the molecule shown here, `O=C(/C=C/c1ccc2c(c1)OCO2)c1ccccc(=O)c1O` , give the reported GI50.
Output line: 21.5 µM (inactive)

Input line: For the molecule shown here, `CN(C)CCNC(=O)Cn1cnc2cccc([N+](=O)[O-])c2c1=O` , give the reported GI50.
Output line: > 100 µM (inactive)

Input line: For the molecule shown here, `C=CCNC(=S)N/N=C1\C(=O)Nc2ccc([N+](=O)[O-])cc21` , give the reported GI50.
Output line: > 100 µM (inactive)

Input line: For the molecule shown here, `CNC(=O)C1(N)c2ccccc2C=Cc2ccccc21` , give the reported GI50.
Output line: > 100 µM (inactive)

Input line: For the molecule shown here, CC(OP(=O)(O)O)C(N)C(=O)O (stereo not given) , give the reported GI50.
Output line: > 100 µM (inactive)

Input line: For the molecule shown here, `CCOc1cc(/C=N\O)cc(/C=N/O)c1O` , give the reported GI50.
Output line: 28.2 µM (inactive)

Input line: For the molecule shown here, `COc1cc(S(=O)(=O)Nc2nc(-c3ccc(N4C(=O)/C(=C\c5cccs5)N=C4c4ccccc4)cc3)cs2)ccc1Cl` , give the reported GI50.
Output line: 66.8 µM (inactive)

Data origin: ChEMBL document CHEMBL1201862
